# Assayed Target: complexes formed by Nanchung protein and Water witch protein (Nan + Wtrw) (Drosophila melanogaster, UniProt A0ACM8PYI9)
# Sequence (Q9VHY7 entry or part of it): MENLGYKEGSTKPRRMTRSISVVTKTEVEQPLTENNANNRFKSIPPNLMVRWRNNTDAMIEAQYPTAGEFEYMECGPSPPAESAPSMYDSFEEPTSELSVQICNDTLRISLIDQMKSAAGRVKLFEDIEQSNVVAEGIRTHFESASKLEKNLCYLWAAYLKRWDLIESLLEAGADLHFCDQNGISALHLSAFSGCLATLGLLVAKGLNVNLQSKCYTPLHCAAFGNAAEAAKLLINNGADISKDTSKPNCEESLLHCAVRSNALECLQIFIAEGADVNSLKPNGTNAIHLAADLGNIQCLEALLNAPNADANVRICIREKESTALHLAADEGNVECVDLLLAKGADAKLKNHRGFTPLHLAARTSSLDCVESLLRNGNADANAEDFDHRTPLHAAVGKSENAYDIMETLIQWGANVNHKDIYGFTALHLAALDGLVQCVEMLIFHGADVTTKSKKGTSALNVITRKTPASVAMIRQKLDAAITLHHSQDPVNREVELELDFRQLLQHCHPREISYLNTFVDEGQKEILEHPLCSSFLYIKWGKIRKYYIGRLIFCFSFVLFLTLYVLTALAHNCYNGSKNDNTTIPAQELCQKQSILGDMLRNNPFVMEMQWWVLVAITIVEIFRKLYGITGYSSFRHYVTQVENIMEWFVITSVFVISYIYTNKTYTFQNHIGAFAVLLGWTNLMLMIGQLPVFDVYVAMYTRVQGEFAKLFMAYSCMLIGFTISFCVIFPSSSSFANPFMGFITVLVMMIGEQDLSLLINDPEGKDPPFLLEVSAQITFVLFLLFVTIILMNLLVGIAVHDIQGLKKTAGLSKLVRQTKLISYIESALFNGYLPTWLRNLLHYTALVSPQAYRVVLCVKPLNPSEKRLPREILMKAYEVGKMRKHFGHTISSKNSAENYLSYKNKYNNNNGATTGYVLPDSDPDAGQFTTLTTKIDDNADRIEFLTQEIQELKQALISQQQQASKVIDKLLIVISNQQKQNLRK
# Sequence (A0ACM8PYI9 entry or part of it): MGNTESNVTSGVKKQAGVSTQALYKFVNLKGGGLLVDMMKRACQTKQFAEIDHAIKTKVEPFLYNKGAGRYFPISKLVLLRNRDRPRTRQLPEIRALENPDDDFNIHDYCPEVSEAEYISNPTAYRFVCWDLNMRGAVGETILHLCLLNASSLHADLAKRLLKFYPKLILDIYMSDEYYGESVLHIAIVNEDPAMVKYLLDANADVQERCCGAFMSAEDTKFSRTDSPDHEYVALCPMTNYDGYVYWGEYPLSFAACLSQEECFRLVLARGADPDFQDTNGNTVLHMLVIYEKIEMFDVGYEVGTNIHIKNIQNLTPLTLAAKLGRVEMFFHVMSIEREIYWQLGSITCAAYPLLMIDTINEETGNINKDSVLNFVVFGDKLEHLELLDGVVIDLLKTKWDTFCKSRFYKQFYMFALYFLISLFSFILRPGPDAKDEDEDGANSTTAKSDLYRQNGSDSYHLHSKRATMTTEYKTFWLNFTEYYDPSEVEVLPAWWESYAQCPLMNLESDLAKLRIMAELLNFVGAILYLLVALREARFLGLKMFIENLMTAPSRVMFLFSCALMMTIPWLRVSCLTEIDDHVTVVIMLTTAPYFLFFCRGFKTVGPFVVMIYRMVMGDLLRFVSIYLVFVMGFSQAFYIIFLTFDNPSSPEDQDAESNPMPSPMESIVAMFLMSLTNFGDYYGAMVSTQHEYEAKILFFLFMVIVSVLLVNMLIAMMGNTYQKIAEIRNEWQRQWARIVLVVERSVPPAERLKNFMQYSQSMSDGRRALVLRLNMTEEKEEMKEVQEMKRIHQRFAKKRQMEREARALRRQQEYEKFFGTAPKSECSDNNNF
# Experiment Summary: biochemical
Recorded Endpoint: Kd

- C[C@]1(COC(=O)C2CC2)[C@@H]2C[C@H](O)[C@@]3(C)Oc4cc(-c5cccnc5)oc(=O)c4[C@H](O)[C@@H]3[C@@]2(C)CC[C@@H]1OC(=O)C1CC1 [afidopyropen]: 0.048 nM
